# Tested On: T1, RBFOX1 RRM RbFoxmut (Fox-RRM*) (Homo sapiens, UniProt Q9NWB1 109-208, R118D;E147R;N151S;E152T)
# T1 sequence: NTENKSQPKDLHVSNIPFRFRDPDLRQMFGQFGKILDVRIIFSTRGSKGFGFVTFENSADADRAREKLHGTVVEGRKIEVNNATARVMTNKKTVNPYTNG
# Test Protocol: EMSA; HiTS-Eq, 1 nM pool, 10 min; buffer printed only for the single-RNA assays: 10 mM Tris pH 7.5, 150 mM NaCl, 3.4 mM EDTA, 0.001% NP-40, 30 C
# Particulars: tags: His6 N-terminal (pET28a); label: 5' 32P
Over roughly 16,000 sequences, “ka relative to ugcaugu” has its median near 0.096; the highest 2% begin near 0.35. This excerpt belongs to a sample that is enriched for the highest values.
Test Readout: binding signal

Note to self: binding signal recorded for GCAUCCA (DNA:RNA) RNA: GGGAGACCGGAAUUCAGAUUGUCCGCAUCCAUUAAAUCCCGUCGUAGCCACCA DNA 1: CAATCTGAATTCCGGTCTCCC DNA 2: TGGTGGCTACGACGGGATT was 0.338 KA relative to UGCAUGU

Note to self: binding signal recorded for GCAUUGU (DNA:RNA) RNA: GGGAGACCGGAAUUCAGAUUGUCCGCAUUGUUUAAAUCCCGUCGUAGCCACCA DNA 1: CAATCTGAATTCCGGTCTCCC DNA 2: TGGTGGCTACGACGGGATT was 0.228 KA relative to UGCAUGU

Note to self: binding signal recorded for GCAUCGU (DNA:RNA) RNA: GGGAGACCGGAAUUCAGAUUGUCCGCAUCGUUUAAAUCCCGUCGUAGCCACCA DNA 1: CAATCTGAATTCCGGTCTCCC DNA 2: TGGTGGCTACGACGGGATT was 0.578 KA relative to UGCAUGU

Note to self: binding signal recorded for GCACCGU (DNA:RNA) RNA: GGGAGACCGGAAUUCAGAUUGUCCGCACCGUUUAAAUCCCGUCGUAGCCACCA DNA 1: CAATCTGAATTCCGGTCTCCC DNA 2: TGGTGGCTACGACGGGATT was 0.172 KA relative to UGCAUGU
